The origin of these recorded values is ChEMBL document CHEMBL3758087.

molecular target: Metabotropic glutamate receptor 5 (Homo sapiens, UniProt P41594); test: Antagonist activity at human mGluR5 expressed in CHO cells assessed as inhibition of glutamate-induced effect by aequorin bioluminescence assay; assay type: cell-based
Sequence (P41594 whole entry): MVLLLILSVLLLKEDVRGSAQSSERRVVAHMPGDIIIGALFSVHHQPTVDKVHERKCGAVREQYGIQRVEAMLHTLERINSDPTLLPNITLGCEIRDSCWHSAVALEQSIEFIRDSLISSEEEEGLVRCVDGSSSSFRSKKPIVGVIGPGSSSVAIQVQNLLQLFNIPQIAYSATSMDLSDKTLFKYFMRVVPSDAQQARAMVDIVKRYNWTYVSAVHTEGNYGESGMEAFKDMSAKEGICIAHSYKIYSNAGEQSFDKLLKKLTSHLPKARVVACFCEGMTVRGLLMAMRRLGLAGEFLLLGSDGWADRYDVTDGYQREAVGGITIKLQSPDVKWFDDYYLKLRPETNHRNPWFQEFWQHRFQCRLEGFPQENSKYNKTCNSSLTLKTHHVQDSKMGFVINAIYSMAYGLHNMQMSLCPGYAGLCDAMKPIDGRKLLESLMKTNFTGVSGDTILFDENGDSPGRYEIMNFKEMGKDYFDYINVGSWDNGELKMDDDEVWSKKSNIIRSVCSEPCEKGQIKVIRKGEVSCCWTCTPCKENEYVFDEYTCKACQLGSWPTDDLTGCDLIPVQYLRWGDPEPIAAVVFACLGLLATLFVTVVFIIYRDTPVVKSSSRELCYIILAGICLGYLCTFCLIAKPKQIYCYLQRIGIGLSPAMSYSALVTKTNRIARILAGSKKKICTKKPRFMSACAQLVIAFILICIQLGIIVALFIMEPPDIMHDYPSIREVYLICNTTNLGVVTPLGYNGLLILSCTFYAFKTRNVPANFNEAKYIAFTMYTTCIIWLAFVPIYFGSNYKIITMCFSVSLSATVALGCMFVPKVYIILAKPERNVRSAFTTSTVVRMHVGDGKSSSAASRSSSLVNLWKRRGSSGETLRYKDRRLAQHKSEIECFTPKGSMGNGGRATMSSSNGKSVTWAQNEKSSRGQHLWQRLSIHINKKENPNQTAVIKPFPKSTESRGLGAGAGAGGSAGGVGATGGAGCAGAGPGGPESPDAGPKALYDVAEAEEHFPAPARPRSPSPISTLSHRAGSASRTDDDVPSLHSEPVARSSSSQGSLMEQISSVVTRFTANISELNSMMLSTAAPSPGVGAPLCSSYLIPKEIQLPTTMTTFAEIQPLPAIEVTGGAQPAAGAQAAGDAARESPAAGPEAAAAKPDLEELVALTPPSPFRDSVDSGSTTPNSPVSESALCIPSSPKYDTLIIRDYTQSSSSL
propertyName: pIC50
Hey, just a heads up that pIC50 is the negative log base 10 of the concentration in molar.

Task item: Tell me reported pIC50 for `O=C(Nc1ccnc(Cl)c1)c1nnn2c1CSc1c-2ccc(F)c1Cl` , tested with Metabotropic glutamate receptor 5 (Homo sapiens, UniProt P41594).
Reply: 9.10

---

molecular target: Metabotropic glutamate receptor 5 (Homo sapiens); test: Antagonist activity at human mGluR5d by fluo-3-based FLIPR assay
propertyName: IC50 (µM)
Unit µM implied. Number only.

Task item: Given the entry N#Cc1cccc(C#C[C@H]2CCC[C@H]3CN(c4ncccc4C#N)CCN32)c1 (racemic) , report its measured IC50.
Reply: 0.02
